STUDY SYSTEM: T1, DapF (diaminopimelate epimerase), wild type, N-terminal 6×His tag (Escherichia coli, UniProt P0A6K1 1-274)
T1 sequence (looked up): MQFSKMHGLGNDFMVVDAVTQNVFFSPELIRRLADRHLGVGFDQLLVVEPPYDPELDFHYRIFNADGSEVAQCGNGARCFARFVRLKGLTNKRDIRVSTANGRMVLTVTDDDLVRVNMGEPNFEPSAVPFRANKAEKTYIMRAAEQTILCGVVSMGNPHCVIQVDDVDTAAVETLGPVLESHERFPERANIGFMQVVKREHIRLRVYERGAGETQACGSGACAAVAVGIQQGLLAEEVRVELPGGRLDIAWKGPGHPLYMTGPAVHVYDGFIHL
PROTOCOL SUMMARY: ITC
MEASURED ENDPOINT: stoichiometry N

[[record]]
binder = "RppH (R145A), GST tag removed (enzyme, Escherichia coli, UniProt P0A776 1-176, looked up) MIDDDGYRPNVGIVICNRQGQVMWARRFGQHSWQFPQGGINPGESAEQAMYRELFEEVGLSRKDVRILASTRNWLRYKLPKRLVRWDTKPVCIGQKQKWFLLQLVSGDAEINMQTSSTPEFDGWRWVSYWYPVRQVVSFKRDVYARVMKEFASVVMSLQENTPKPQNASAYRRKRG"
measured_endpoint = "stoichiometry N"
recorded_value = 1.01

[[record]]
binder = "RppH (D142A), GST tag removed (enzyme, Escherichia coli, UniProt P0A776 1-176, looked up) MIDDDGYRPNVGIVICNRQGQVMWARRFGQHSWQFPQGGINPGESAEQAMYRELFEEVGLSRKDVRILASTRNWLRYKLPKRLVRWDTKPVCIGQKQKWFLLQLVSGDAEINMQTSSTPEFDGWRWVSYWYPVRQVVSFKRAVYRRVMKEFASVVMSLQENTPKPQNASAYRRKRG"
measured_endpoint = "stoichiometry N"
recorded_value = 1.05

[[record]]
binder = "RppH (RNA pyrophosphohydrolase), wild type, GST tag removed (enzyme, Escherichia coli, UniProt P0A776 1-176, looked up) MIDDDGYRPNVGIVICNRQGQVMWARRFGQHSWQFPQGGINPGESAEQAMYRELFEEVGLSRKDVRILASTRNWLRYKLPKRLVRWDTKPVCIGQKQKWFLLQLVSGDAEINMQTSSTPEFDGWRWVSYWYPVRQVVSFKRDVYRRVMKEFASVVMSLQENTPKPQNASAYRRKRG"
measured_endpoint = "stoichiometry N"
recorded_value = 0.95

[[record]]
binder = "RppH (S128A), GST tag removed (enzyme, Escherichia coli, UniProt P0A776 1-176, looked up) MIDDDGYRPNVGIVICNRQGQVMWARRFGQHSWQFPQGGINPGESAEQAMYRELFEEVGLSRKDVRILASTRNWLRYKLPKRLVRWDTKPVCIGQKQKWFLLQLVSGDAEINMQTSSTPEFDGWRWVAYWYPVRQVVSFKRDVYRRVMKEFASVVMSLQENTPKPQNASAYRRKRG"
measured_endpoint = "stoichiometry N"
recorded_value = 0.85

